Would you mind telling me the reported Ki of each entry?
# system: T1, GST-PHD1 (S287–K347) of histone demethylase KDM5A (UniProt P29375 287-347)
# T1 sequence (looked up): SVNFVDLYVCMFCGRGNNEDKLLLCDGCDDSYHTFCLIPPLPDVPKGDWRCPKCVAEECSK
# protocol.notes: fluorescence polarisation

q: I would be grateful if you could share the reported Ki for ARAKQTARKS (peptide, UniProt P68431 2-11, looked up) [H3 T3A 10-mer peptide] .
a: > 100 µM

q: Value lookup for Ki; key = ARFKQTARKS (peptide, UniProt P68431 2-11, looked up) [H3 T3F 10-mer peptide]
a: > 100 µM

q: Ki lookup needed for ARYKQTARKS (peptide, UniProt P68431 2-11, looked up) [H3 T3Y 10-mer peptide] , thanks.
a: > 100 µM

q: Requested field: Ki. Item: ARTKATARKS (peptide, UniProt P68431 2-11, looked up) [H3 Q5A 10-mer peptide]
a: 0.75 µM

q: Give its Ki value. Item: ARYKYTARKS (peptide, UniProt P68431 2-11, looked up) [H3 T3Y Q5Y 10-mer peptide]
a: > 100 µM

q: Report Ki for ARDKQTARKS (peptide, UniProt P68431 2-11, looked up) [H3 T3D 10-mer peptide] please.
a: > 100 µM

meta.source: paper PMC8168426
